Test system: pERK in H460 cells
Test: Inhibition of KRas phosphorylation of ERK (Cisbio HTRF pERK assay)
Settings: Homo sapiens, NCI-H460, read-out: Inhibition (HTRF IC50) of KRas-mediated Phosphorylation of ERK, H460
Measurement Label: log10(IC50) (log10 of the value in nM)
Kindly note that the scale is log10 and the underlying IC50 is in nM.

# count of solved cases: 5
Compound	log10(IC50)
CCc1c(F)ccc2cc(O)cc(-c3ncc4c(N5CCOCC(O)C5)nc(OC[C@@]56CCCN5C[C@H](F)C6)nc4c3F)c12 (stereo partly shown)	1.91
CCc1c(F)ccc2cc(O)cc(-c3ncc4c(N5CCOCC(OC)C5)nc(OC[C@@]56CCCN5C[C@H](F)C6)nc4c3F)c12 (stereo partly shown)	2.21
CCc1c(F)ccc2cc(O)cc(-c3ncc4c(N5C[C@@H]6C[C@H](C5)[C@H](O)C6)nc(OCC5(CN6CCCC6)CC5)nc4c3F)c12	2.00
CCc1c(F)ccc2cc(O)cc(-c3ncc4c(N5CCCC6(COC(=O)N6)C5)nc(OC[C@@]56CCCN5C[C@H](F)C6)nc4c3F)c12 (stereo partly shown)	2.85
CCc1c(F)ccc2cc(O)cc(-c3ncc4c(N5CC(c6ccncc6)C5)nc(OC[C@@]56CCCN5C[C@H](F)C6)nc4c3F)c12	1.51

So what's the measured log10(IC50) for this one? CCc1c(F)ccc2cc(O)cc(-c3ncc4c(N5CCC[C@@](C)(O)C5)nc(OCC5(CN6CCCCC6)CC5)nc4c3F)c12
1.20

###

Entries and their pIC50
Molecular target: KRas G12V (Homo sapiens, UniProt P01116, G12V);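 also: KRas binding measured by TR-FRET displacement at room temperature, IC50 fitted from percent of control values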
Sequence (P01116 1-169 isoform P01116-2 G12V): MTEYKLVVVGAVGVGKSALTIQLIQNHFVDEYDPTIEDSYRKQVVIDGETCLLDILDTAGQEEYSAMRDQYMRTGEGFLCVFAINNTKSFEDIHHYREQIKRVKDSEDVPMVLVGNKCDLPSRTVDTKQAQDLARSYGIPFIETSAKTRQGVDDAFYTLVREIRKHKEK
Assay: biochemical
pIC50: −log10 of the molar value.

# count of solved cases: 3
Compound	Tested On	pIC50
C#Cc1c(F)ccc2cc(O)cc(-c3ncc4c(N5CCC[C@@](C)(O)C5)nc(OC[C@@]56CCCN5C[C@H](F)C6)nc4c3F)c12 [Example 13]	KRas G12V (Homo sapiens, UniProt P01116, G12V)	≥ 8.70
Oc1cccc2c1CN(c1nc(OCC34CCCN3CCC4)nc3c(F)c(-c4cccc5cccc(F)c45)ncc13)C2 [Example 120]	KRas G12V (Homo sapiens, UniProt P01116, G12V)	≤ 4.00
CCc1c(F)ccc2cc(O)cc(-c3ncc4c(N5CC(c6ccncc6)C5)nc(OC[C@@]56CCCN5C[C@H](F)C6)nc4c3F)c12 [Example 172]	KRas G12V (Homo sapiens, UniProt P01116, G12V)	≥ 8.70

Turning to the following compound.
So what's the measured pIC50 for this one? CN(C)CC1(COc2nc(N3CCCC4(CNS(=O)(=O)N4)C3)c3cnc(-c4cc(O)cc5ccc(F)c(Cl)c45)c(F)c3n2)CC1 (stereo not shown) [Example 428]
≥ 8.70

###

System: pERK in HCT116 cells
Test: Inhibition of KRas phosphorylation of ERK (Cisbio HTRF pERK assay)
Settings: Homo sapiens, HCT-116, read-out: Inhibition (HTRF IC50) of KRas-mediated Phosphorylation of ERK, HCT116
Entries and their IC50
State the answer as a number, implicitly in µM.

Compound	Tested On	Measurement Label	Measured Value
CCc1c(F)ccc2cc(O)cc(-c3ncc4c(N5CCOCC(CO)C5)nc(OC[C@@]56CCCN5C[C@H](F)C6)nc4c3F)c12 (some centres unmarked)	pERK in HCT116 cells	IC50	0.336
CCc1c(F)ccc2cc(O)cc(-c3ncc4c(N5CCCC6(COC(=O)N6)C5)nc(OC[C@@]56CCCN5C[C@H](F)C6)nc4c3F)c12 (some centres unmarked)	pERK in HCT116 cells	IC50	5.43
CCc1c(F)ccc2cc(O)cc(-c3ncc4c(NCC5CNS(=O)(=O)N5)nc(OC[C@@]56CCCN5C[C@H](F)C6)nc4c3F)c12 (some centres unmarked)	pERK in HCT116 cells	IC50	2.17
CCc1c(F)ccc2cc(O)cc(-c3ncc4c(N5CCC[C@@H](O)C5)nc(OC[C@@]56CCCN5C[C@H](F)C6)nc4c3F)c12	pERK in HCT116 cells	IC50	0.082

So what's the measured IC50 for this one? CCc1c(F)ccc2cc(O)cc(-c3ncc4c(N5CCCC6(CCS(=O)(=O)C6)C5)nc(OC[C@@]56CCCN5C[C@H](F)C6)nc4c3F)c12 (some centres unmarked)
0.341

So what's the measured IC50 for this one? CCc1c(F)ccc2cc(O)cc(-c3ncc4c(N5CC6CCC(C6)C5)nc(OC[C@@]56CCCN5C[C@H](F)C6)nc4c3F)c12
0.797

// data source = patent US12398154B2
